These entries and their values trace back to ChEMBL document CHEMBL1201862.

target: Cytochrome P450 2D6 (Homo sapiens);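 also: CYP2D6 member of a cytochrome P450 panel assay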
Sequence (P10635 whole entry): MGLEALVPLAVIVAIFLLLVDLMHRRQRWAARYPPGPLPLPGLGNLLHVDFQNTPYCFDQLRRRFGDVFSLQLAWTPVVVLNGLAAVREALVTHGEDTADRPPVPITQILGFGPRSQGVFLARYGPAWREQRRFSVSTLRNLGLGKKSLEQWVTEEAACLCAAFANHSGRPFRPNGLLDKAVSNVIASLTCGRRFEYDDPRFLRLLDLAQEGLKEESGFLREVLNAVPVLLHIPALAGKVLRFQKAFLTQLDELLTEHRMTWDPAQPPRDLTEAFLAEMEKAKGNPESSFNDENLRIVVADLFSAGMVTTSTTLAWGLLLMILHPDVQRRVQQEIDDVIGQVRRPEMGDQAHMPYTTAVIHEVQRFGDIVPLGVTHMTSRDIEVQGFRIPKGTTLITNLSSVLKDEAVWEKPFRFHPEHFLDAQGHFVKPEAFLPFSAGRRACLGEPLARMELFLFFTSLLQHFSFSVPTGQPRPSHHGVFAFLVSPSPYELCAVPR
What AC50 was measured for each of the following?

These solved cases illustrate the format of a correct answer.
CCOc1ccc(C(=O)C2=C(O)C(=O)N(CCCn3ccnc3)C2c2cccs2)cc1Cl (centres undefined) :: 14.1 µM (inconclusive)
C/C=C(\C)C(=O)O[C@@H]1C(C)=C2[C@H]([C@@H]1OC(=O)CCCCCCC)[C@@](C)(OC(C)=O)C[C@@H](OC(=O)CCC)[C@@]1(O)[C@H]2OC(=O)[C@]1(C)O :: 39.8 µM (inconclusive)
Cc1[nH]c2ccccc2c1C(c1ccccn1)N1CCC(C)CC1 (centres undefined) :: 25.1 µM (inconclusive)
C/C(=C\C(=O)c1ccc(Cl)cc1)NCc1ccc2c(c1)OCO2 :: 5.01 µM (inconclusive)

Go through the items and report each one's AC50.
1. CS(=O)(=O)N1CCC2(CCCN(c3ccccn3)C2)CC1
2. c1nc(NC2CCNCC2)c2cc(-c3ccc4c(c3)OCO4)ccc2n1
3. O=[N+]([O-])c1ccc2c(/N=N\c3ccc4ccccc4c3O)c(O)cc(S(=O)(=O)O)c2c1
4. CN1CCN(c2ncc3nc(-c4cn(C)c5ccccc45)c(=O)n(CCC#N)c3n2)CC1
5. CN(Cc1ccco1)C(=O)C1CCC(=O)N1Cc1ccc(F)cc1 (centres undefined)

25.1 µM (inconclusive)
20 µM (inconclusive)
0.631 µM (inconclusive)
39.8 µM (inconclusive)
25.1 µM (inconclusive)
